# EXPERIMENTAL_SYSTEM: ATP-dependent translocase ABCB1 (Homo sapiens, UniProt P08183)
# Sequence (P08183 whole entry): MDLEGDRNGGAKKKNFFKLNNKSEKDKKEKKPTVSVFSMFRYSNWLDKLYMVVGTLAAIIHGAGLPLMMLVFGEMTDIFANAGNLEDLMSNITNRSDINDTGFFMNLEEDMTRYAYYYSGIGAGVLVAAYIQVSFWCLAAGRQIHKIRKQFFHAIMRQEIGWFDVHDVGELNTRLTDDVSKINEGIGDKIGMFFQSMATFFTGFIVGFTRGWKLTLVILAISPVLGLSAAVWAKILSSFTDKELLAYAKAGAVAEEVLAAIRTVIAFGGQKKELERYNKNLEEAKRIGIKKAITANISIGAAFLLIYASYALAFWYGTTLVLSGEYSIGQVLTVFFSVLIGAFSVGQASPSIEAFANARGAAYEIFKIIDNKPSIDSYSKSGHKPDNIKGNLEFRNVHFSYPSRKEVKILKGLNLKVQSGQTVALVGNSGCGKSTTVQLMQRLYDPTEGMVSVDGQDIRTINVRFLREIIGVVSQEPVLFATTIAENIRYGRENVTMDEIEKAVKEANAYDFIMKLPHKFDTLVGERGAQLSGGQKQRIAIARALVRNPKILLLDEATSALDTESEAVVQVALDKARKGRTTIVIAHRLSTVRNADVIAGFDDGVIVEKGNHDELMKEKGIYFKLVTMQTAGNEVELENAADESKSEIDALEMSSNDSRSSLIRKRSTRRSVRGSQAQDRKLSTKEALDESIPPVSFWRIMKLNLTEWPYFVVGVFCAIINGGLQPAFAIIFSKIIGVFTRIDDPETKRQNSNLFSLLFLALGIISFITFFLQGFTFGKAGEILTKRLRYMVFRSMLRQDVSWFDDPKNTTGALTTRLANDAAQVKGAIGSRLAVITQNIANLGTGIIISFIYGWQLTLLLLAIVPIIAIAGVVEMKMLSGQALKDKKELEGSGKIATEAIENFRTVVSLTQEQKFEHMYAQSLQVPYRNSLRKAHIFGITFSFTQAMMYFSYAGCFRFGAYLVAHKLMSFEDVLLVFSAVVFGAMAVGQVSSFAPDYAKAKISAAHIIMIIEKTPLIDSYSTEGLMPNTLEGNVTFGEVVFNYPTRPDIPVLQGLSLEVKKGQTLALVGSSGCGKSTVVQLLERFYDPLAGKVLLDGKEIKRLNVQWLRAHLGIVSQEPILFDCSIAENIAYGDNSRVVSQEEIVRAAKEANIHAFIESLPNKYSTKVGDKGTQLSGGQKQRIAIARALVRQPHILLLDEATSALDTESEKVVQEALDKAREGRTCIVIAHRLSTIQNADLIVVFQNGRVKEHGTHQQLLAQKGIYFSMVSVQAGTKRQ
# PROTOCOL_NOTES: Displacement of [125I]-iodoarylazidoprazosin from human P-gp expressed in baculovirus-infected insect Sf9 cells incubated for 10 mins followed by UV light illumination for 20 mins by autoradiography
MEASURED_ATTRIBUTE: IC50 (nM)

# SMILES_RECORD, UNIT_LABEL, RECORDED_NUMBER
measured = [
    ("Nc1nc(NC2CC2)c2ncn([C@H]3C=C[C@@H](COC(=O)CCCCCCCCC(=O)OC[C@@H]4C=C[C@H](n5cnc6c(NC7CC7)nc(N)nc65)C4)C3)c2n1", "nM", 240),
]

----------
# EXPERIMENTAL_SYSTEM: ATP-dependent translocase ABCB1 (Homo sapiens)
# PROTOCOL_NOTES: Ratio of inhibition of P-gp overexpressed in human 12D7-MDR cells using NBD-Aba as substrate to inhibition of P-gp in human MCF7/DX1 cells using NBD-Aba as substrate
# Format: cell-based

# SMILES_RECORD, EXPERIMENTAL_SYSTEM, Ratio
records = [
    ("Nc1nc(NC2CC2)c2ncn([C@H]3C=C[C@@H](COC(=O)CCCCCCCCC(=O)OC[C@@H]4C=C[C@H](n5cnc6c(NC7CC7)nc(N)nc65)C4)C3)c2n1", "ATP-dependent translocase ABCB1 (Homo sapiens)", 6),
]

----------
# EXPERIMENTAL_SYSTEM: UniProtKB P08183
# PROTOCOL_NOTES: Inhibition of P-gp in human CMEC/D3 cells assessed as inhibition of NBD-Aba efflux after 30 mins by flow cytometry
# Assay type: cell-based
pIC50: −log10 of the molar value.

# SMILES_RECORD, VALUE_OPERATOR, pIC50
rows = [
    ("Nc1nc(NC2CC2)c2ncn([C@H]3C=C[C@@H](COC(=O)CCCCCCCCC(=O)OC[C@@H]4C=C[C@H](n5cnc6c(NC7CC7)nc(N)nc65)C4)C3)c2n1", "=", 5.44),
    ("Nc1nc(NC2CC2)c2ncn([C@H]3C=C[C@@H](COC(=O)CCCCCC(=O)OC[C@@H]4C=C[C@H](n5cnc6c(NC7CC7)nc(N)nc65)C4)C3)c2n1", "=", 5.39),
    ("Nc1nc(NC2CC2)c2ncn([C@H]3C=C[C@@H](CO)C3)c2n1", "<", 3.30),
    ("Nc1nc(NC2CC2)c2ncn([C@H]3C=C[C@@H](COC(=O)CCCCCCCCCCC(=O)OC[C@@H]4C=C[C@H](n5cnc6c(NC7CC7)nc(N)nc65)C4)C3)c2n1", "=", 5.96),
    ("Nc1nc(NC2CC2)c2ncn([C@H]3C=C[C@@H](COC(=O)CCCCCCCC(=O)OC[C@@H]4C=C[C@H](n5cnc6c(NC7CC7)nc(N)nc65)C4)C3)c2n1", "=", 5.42),
]

----------
# EXPERIMENTAL_SYSTEM: P-gp (ABCB1) (Homo sapiens, UniProt P08183)
# Sequence (P08183 whole entry): as above
# PROTOCOL_NOTES: Ratio of inhibition of P-gp in human CMEC/D3 cells using NBD-Aba as substrate to inhibition of P-gp in human MCF7/DX1 cells using NBD-Aba as substrate
# Type: cell-based
# STATED_CONDITIONS: CMEC/D3 cells and MCF7/DX1 cells, probe NBD-Aba
MEASURED_ATTRIBUTE: selectivity ratio

# SMILES_RECORD, RECORDED_NUMBER
measured = [
    ("Nc1nc(NC2CC2)c2ncn([C@H]3C=C[C@@H](COC(=O)CCCCCCCCC(=O)OC[C@@H]4C=C[C@H](n5cnc6c(NC7CC7)nc(N)nc65)C4)C3)c2n1", 3),
]

----------
# EXPERIMENTAL_SYSTEM: ATP-dependent translocase ABCB1 (Homo sapiens, UniProt P08183)
# PROTOCOL_NOTES: Inhibition of P-gp overexpressed in human 12D7-MDR cells assessed as inhibition of calcein-AM efflux after 30 mins by flow cytometry
# Type: cell-based
MEASURED_ATTRIBUTE: IC50 (nM)

# SMILES_RECORD, UNIT_LABEL, VALUE_OPERATOR, RECORDED_NUMBER
rows = [
    ("Nc1nc(NC2CC2)c2ncn([C@H]3C=C[C@@H](COC(=O)CCCCCCCCC(=O)OC[C@@H]4C=C[C@H](n5cnc6c(NC7CC7)nc(N)nc65)C4)C3)c2n1", "nM", "=", 2300),
    ("Nc1nc(NC2CC2)c2ncn([C@H]3C=C[C@@H](COC(=O)CCC(=O)OC[C@@H]4C=C[C@H](n5cnc6c(NC7CC7)nc(N)nc65)C4)C3)c2n1", "nM", "=", 50000),
    ("Nc1nc(NC2CC2)c2ncn([C@H]3C=C[C@@H](COC(=O)CCCCCC(=O)OC[C@@H]4C=C[C@H](n5cnc6c(NC7CC7)nc(N)nc65)C4)C3)c2n1", "nM", "=", 7700),
    ("Nc1nc(NC2CC2)c2ncn([C@H]3C=C[C@@H](COC(=O)CCCCCCCCCCC(=O)OC[C@@H]4C=C[C@H](n5cnc6c(NC7CC7)nc(N)nc65)C4)C3)c2n1", "nM", "=", 1400),
    ("Nc1nc(NC2CC2)c2ncn([C@H]3C=C[C@@H](CO)C3)c2n1", "nM", ">", 500000),
    ("Nc1nc(NC2CC2)c2ncn([C@H]3C=C[C@@H](COC(=O)CCCCCCCC(=O)OC[C@@H]4C=C[C@H](n5cnc6c(NC7CC7)nc(N)nc65)C4)C3)c2n1", "nM", "=", 2600),
]
